# Target under test: rat α1β2γ2L type GABAA receptors expressed in Xenopus laevis oocytes (Rattus norvegicus, UniProt P18508+P62813+P63138, INS375LLRMFSFK)
# Construct: expressed in transfected cells; host or cells: Xenopus laevis oocytes
# Sequence (P62813 28-455, stated change not applied): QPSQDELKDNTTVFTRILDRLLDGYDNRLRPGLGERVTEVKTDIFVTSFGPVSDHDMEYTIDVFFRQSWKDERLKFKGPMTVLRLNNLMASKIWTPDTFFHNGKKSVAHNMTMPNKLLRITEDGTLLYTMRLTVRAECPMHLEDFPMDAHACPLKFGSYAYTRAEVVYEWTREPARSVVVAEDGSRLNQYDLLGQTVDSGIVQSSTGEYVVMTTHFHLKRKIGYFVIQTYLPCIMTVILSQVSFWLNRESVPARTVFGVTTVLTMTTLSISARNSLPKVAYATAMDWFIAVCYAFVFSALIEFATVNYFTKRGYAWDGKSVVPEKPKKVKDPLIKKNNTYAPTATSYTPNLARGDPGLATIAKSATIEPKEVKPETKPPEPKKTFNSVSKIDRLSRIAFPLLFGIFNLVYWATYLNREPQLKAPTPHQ
# Sequence (P63138 26-474, stated change not applied): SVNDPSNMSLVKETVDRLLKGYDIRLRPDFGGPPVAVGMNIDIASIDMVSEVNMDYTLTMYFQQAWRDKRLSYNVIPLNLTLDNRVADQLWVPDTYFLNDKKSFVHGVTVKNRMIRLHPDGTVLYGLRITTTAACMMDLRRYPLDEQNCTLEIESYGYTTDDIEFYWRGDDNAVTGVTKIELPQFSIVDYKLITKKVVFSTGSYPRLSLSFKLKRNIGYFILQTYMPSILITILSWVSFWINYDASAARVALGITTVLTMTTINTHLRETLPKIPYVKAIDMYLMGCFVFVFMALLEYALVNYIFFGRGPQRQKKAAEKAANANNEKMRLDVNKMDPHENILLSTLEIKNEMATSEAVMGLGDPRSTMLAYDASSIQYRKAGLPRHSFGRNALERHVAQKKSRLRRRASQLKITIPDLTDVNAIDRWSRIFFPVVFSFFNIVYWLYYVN
# Sequence (P18508 with tags, fused parts or gaps INS375LLRMFSFK): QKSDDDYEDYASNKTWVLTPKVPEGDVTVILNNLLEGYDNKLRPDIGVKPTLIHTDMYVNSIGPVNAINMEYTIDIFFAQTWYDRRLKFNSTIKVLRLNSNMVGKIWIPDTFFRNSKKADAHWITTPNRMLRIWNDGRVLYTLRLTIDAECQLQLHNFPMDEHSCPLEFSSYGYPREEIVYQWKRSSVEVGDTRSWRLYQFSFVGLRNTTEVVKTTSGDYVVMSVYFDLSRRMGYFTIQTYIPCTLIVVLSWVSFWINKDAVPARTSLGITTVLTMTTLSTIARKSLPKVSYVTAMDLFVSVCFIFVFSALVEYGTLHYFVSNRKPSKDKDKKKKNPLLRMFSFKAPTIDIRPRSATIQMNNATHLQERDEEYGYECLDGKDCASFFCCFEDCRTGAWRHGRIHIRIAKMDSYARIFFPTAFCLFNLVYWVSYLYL
# Experiment notes: Potentiation of GABA-mediated chloride currents, oocyte electrophysiology
# Type: cell-based
# Condition parameters: direct current gated by 10 μM compound in absence of GABA, ratio compound only current/2 μM GABA current; ± SEM
Binarize Oocyte electrophysiology (gating) 10 μM at 0.04; below is T, at or above is F.

Previously resolved entries follow.
> print(dat)
                            compound.string  group.label
1  C[C@@]12CC[C@H]3C[C@H]4C[C@H](O)CC[C@@H]4C[C@@H]3[C@H]1CC=C2C#N            F
2  C[C@@]12CC[C@H]3C[C@H]4C[C@H](O)CC[C@@H]4C[C@@H]3[C@H]1CC[C@]21CO1            T
3  C[C@@]12CC[C@H]3C[C@H]4C[C@H](O)CC[C@@H]4C[C@@H]3[C@H]1CC(=O)C2            F
4  C[C@]12CC[C@@H]3C[C@@H]4C[C@@H](O)CC[C@H]4C[C@H]3[C@@H]1CC[C@@H]2C#N            T
5  C[C@]12CC[C@@H]3C[C@@H]4C[C@@H](O)CC[C@H]4C[C@H]3[C@@H]1CC[C@@]21CO1            F
6  C[C@]12CC[C@@H]3C[C@@H]4C[C@@H](O)CC[C@H]4C[C@H]3[C@@H]1CCC2=O            T

Then there is this compound:
Decide: Oocyte electrophysiology (gating) 10 μM of C[C@]12CC[C@@H]3C[C@@H]4C[C@@H](O)CC[C@H]4C[C@H]3[C@@H]1CC=C2C#N strictly below 0.04?
F

----------
melting point listing for selected molecules.

Example results:
> print(dat)
                            compound.string  value.observed
1  C[C@@]12CC[C@H]3C[C@H]4C[C@H](O)CC[C@@H]4C[C@@H]3[C@H]1CC[C@]21CO1   143 to 145 °C
2  C[C@]12CC[C@@H]3C[C@@H]4C[C@@H](O)CC[C@H]4C[C@H]3[C@@H]1CCC2=O   152 to 154 °C

Given the entry C[C@@]12CC[C@H]3C[C@H]4C[C@H](O)CC[C@@H]4C[C@@H]3[C@H]1CC(=O)C2 , report its measured melting point.
145 to 147 °C

----------
Oocyte electrophysiology 0.1 μM listing for selected compounds.
# Target under test: rat α1β2γ2L type GABAA receptors expressed in Xenopus laevis oocytes (Rattus norvegicus, UniProt P18508+P62813+P63138, INS375LLRMFSFK)
# Construct: expressed in transfected cells; host or cells: Xenopus laevis oocytes
# Experiment notes: Potentiation of GABA-mediated chloride currents, oocyte electrophysiology
# Type: cell-based
# Condition parameters: ratio of currents in presence/absence of 0.1 μM compound; 2 μM GABA; ± SEM, N≥4
Form rule: numeric answer, no unit written next to it.

Example results:
> print(dat)
                                   compound  value.observed
1  C[C@@]12CC[C@H]3C[C@H]4C[C@H](O)CC[C@@H]4C[C@@H]3[C@H]1CC=C2C#N [MQ-81]            1.37
2  C[C@@]12CC[C@H]3C[C@H]4C[C@H](O)CC[C@@H]4C[C@@H]3[C@H]1CCC2=O [MQ-64]            0.98
3  C[C@]12CC[C@@H]3C[C@@H]4C[C@@H](O)CC[C@H]4C[C@H]3[C@@H]1CC[C@@]21CO1 [MQ-75]            1.36
4  C[C@@]12CC[C@H]3C[C@H]4C[C@H](O)CC[C@@H]4C[C@@H]3[C@H]1CC[C@]21CO1 [MQ-65]            1.27

Would you kindly look at the next entry?
Given the entry C[C@]12CC[C@@H]3C[C@@H]4C[C@@H](O)CC[C@H]4C[C@H]3[C@@H]1CC[C@@H]2C#N [MQ-77] , report its measured Oocyte electrophysiology 0.1 μM.
1.03
